target: Pancreatic triacylglycerol lipase (Sus scrofa) (UniProt P00591); assay: Inhibition of porcine pancreatic lipase using p-nitrophenylbutyrate as substrate at 100 uM preincubated for 15 mins prior substrate addition measured after 15 mins by spectrophotometry
endpoint.label: inhibition (%)
Give just the number in %; leave the unit off.

Recorded inhibition (compound Oc1ccc(C2CCc3ccc(O)cc3O2)cc1 (configuration not stated) ): 55.6

Recorded inhibition (compound `COc1ccc(-c2oc3cc(O)ccc3c(=O)c2O)cc1O` ): 38.2

Recorded inhibition (compound `COc1ccc(-c2oc3cc(O)ccc3c(=O)c2O)cc1` ): 21.8

Recorded inhibition (compound COC1=CC(=O)C=CC1(O)CCCc1ccc(O)cc1 (configuration not stated) [BROUSSONONE A] ): 71.9

Recorded inhibition (compound COc1ccc(C2CCc3ccc(O)cc3O2)cc1O (configuration not stated) ): 24.8

Recorded inhibition (compound COc1cc(O)ccc1CCCc1ccc(O)cc1 [BROUSSONIN B] ): 40.4

Recorded inhibition (compound COc1ccc(CCCc2ccc(O)cc2)c(O)c1 [BROUSSONIN A] ): 50.7

* * *

Biological target: UniProtKB P00591
Sequence (P00591 whole entry): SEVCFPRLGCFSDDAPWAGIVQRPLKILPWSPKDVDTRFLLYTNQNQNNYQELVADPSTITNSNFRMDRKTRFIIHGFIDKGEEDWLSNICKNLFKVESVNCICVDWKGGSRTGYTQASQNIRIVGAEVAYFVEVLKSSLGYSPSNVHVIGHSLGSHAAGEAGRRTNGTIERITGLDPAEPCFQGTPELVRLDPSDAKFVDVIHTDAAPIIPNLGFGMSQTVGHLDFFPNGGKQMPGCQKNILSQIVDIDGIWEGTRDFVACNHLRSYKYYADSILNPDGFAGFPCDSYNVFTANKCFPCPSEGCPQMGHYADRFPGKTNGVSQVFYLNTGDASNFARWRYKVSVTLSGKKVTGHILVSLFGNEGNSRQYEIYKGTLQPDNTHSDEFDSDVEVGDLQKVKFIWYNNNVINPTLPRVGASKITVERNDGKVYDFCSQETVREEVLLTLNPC
endpoint.label: IC50

Let me check: COc1cc(O)ccc1CCCc1ccc(O)cc1 [BROUSSONIN B] , system UniProtKB P00591, measured IC50 is 75.4 µM

Let me check: Oc1ccc(C2CCc3ccc(O)cc3O2)cc1 (stereo not drawn) , system UniProtKB P00591, measured IC50 is 85.1 µM

Let me check: `COc1ccc(-c2oc3cc(O)ccc3c(=O)c2O)cc1` , system UniProtKB P00591, measured IC50 is > 100 µM

Each recorded value in this set is attributed to ChEMBL document CHEMBL2016461.
